System: P388 leukemia ip, CD2F1 mice, survival T/C
Protocol Text: NCI In Vivo Anticancer Drug Screen. Data for tumor model P388 Leukemia (intraperitoneal) in CD2F1 (CDF1) mice
Study Conditions: endpoint: median survival time; dose: 6.25 mg/kg/injection; schedule: Q01DX009 (ip); vehicle: saline; higher = longer survival
Method: The antitumor activity of compounds was measured in mice bearing transplantable tumors. Survival or tumor size were measured and the results are expressed as the measurement made in the treated group (T) divided by the measurement made in the vehicle treated control group (C). The tumor model used in this assay is P388 Leukemia (intraperitoneal) in CD2F1 (CDF1) mice
Toxic doses and inconclusive results are not listed.
Overview of reported T/C across a group of compounds:

Below, each entry is followed by its recorded T/C result.
INSERT INTO assay_data (compound, quantity, obs_value) VALUES
  ('CC1CN1P(=O)(N1CC2CCC(CC2)C1)N1CC1C (centres undefined)', 'T/C', '109 % of control'),
  ('CCn1c(=O)c2c(ncn2C)n(C)c1=O', 'T/C', '100 % of control'),
  ('COC(OC(CO)C(O)S(=O)(=O)O)C(O)S(=O)(=O)O (centres undefined)', 'T/C', '100 % of control');

Then this compound:
# lookup: T/C of `Cc1c(-c2ccccc2)ccnc1/C=N/NC(N)=S`
101 % of control

====

System: P388 leukemia ip, CD2F1 mice, survival T/C
Protocol Text: NCI In Vivo Anticancer Drug Screen. Data for tumor model P388 Leukemia (intraperitoneal) in CD2F1 (CDF1) mice
Study Conditions: endpoint: median survival time; dose: 100.0 mg/kg/injection; schedule: Q04DX003 (ip); vehicle: saline with Tween-80; higher = longer survival
Inconclusive results and toxic doses are left out.
Overview of reported T/C across a group of compounds:

Below, each entry is followed by its recorded T/C result.
INSERT INTO measurements (compound, obs_value) VALUES
  ('CCC1CN1P(=O)(OCCC#N)N1CC1CC (configuration not stated)', '104 % of control'),
  ('C(/C=C/c1ccccc1)=C1SCCCS1', '94 % of control'),
  ('COc1ccc(C(=O)CC(C(=O)O)c2ccc3c(c2)OCO3)cc1OC (configuration not stated)', '100 % of control');

# lookup: T/C of `Cc1cccc(C(=O)/C=C2/CCCN2C)c1`
110 % of control

# lookup: T/C of `COc1ccc(OC)c(C2N(Cc3ccc(N(C)C)cc3)CCCN2Cc2ccc(N(C)C)cc2)c1`
91 % of control

# lookup: T/C of CSC(C#N)(c1ccccc1)N(C)C (configuration not stated)
103 % of control

# lookup: T/C of `CC1(OC(=O)Nc2ccccc2)CCCCC1`
96 % of control

====

Test system: P388 leukemia ip, CD2F1 mice, survival T/C
Protocol Text: NCI In Vivo Anticancer Drug Screen. Data for tumor model P388 Leukemia (intraperitoneal) in CD2F1 (CDF1) mice
Study Conditions: endpoint: median survival time; dose: 50.0 mg/kg/injection; schedule: Q01DX005 (ip); vehicle: saline with Tween-80; higher = longer survival
Procedure: The antitumor activity of compounds was measured in mice bearing transplantable tumors. Survival or tumor size were measured and the results are expressed as the measurement made in the treated group (T) divided by the measurement made in the vehicle treated control group (C). The tumor model used in this assay is P388 Leukemia (intraperitoneal) in CD2F1 (CDF1) mice
Toxic doses and inconclusive results are not listed.
Quantity: T/C

Below, each entry is followed by its recorded T/C result.
INSERT INTO results (compound, test_system, obs_value) VALUES
  ('NC(=O)c1cc(Cl)nc2nc(Cl)nc(N)c12', 'P388 leukemia ip, CD2F1 mice, survival T/C', '105 % of control'),
  ('NCCCCC(C(=O)NC(Cc1ccccc1)C(=O)O)N(C(=O)OCc1ccccc1)C(=O)OCc1ccccc1 (stereo not given)', 'P388 leukemia ip, CD2F1 mice, survival T/C', '96 % of control'),
  ('CCCCN(CCCC)CCNC(c1ccc(OC)cc1)c1ccc(OC)cc1', 'P388 leukemia ip, CD2F1 mice, survival T/C', '98 % of control'),
  ('CCOC(=O)C1=C(C)O/C(=C\c2cccc(C(F)(F)F)c2)C1=O', 'P388 leukemia ip, CD2F1 mice, survival T/C', '108 % of control'),
  ('COc1ccc(/C=N/NC(=O)CNC(=O)n2ccnc2)cc1', 'P388 leukemia ip, CD2F1 mice, survival T/C', '100 % of control');

# lookup: T/C of `COc1ccccc1NC(=O)C1=C(C)NC(C)=C(C(=O)Nc2ccccc2OC)C1c1c(Cl)cccc1Cl`
94 % of control

# lookup: T/C of `COc1cc2c(O)cc(C(=O)O)c(-c3cc(OC)c(OC)c(OC)c3)c2cc1OC`
98 % of control

# lookup: T/C of `COc1ccc2c3c(c4ccccc4c2c1)C(=O)OC3=O`
87 % of control

====

Overview of reported T/C across a group of compounds:
System: P388 leukemia ip, CD2F1 mice, survival T/C
Protocol Text: NCI In Vivo Anticancer Drug Screen. Data for tumor model P388 Leukemia (intraperitoneal) in CD2F1 (CDF1) mice
Study Conditions: endpoint: median survival time; dose: 100.0 mg/kg/injection; schedule: Q01DX001 (ip); vehicle: Klucel (hydroxypropylcellulose) (HPC); higher = longer survival
Inconclusive results and toxic doses are left out.

Below, each entry is followed by its recorded T/C result.
INSERT INTO results (compound, test_system, obs_value) VALUES
  ('CCOC(=O)C12C=CC(=O)NC1(OC)OC(C)C2 (stereo unspecified)', 'P388 leukemia ip, CD2F1 mice, survival T/C', '90 % of control'),
  ('Cc1ccc(S(=O)(=O)N/N=C/c2c(Cl)n(C)c3ccccc23)cc1', 'P388 leukemia ip, CD2F1 mice, survival T/C', '91 % of control'),
  ('Cc1ccc(SSC(=S)N2CCOCC2)cc1', 'P388 leukemia ip, CD2F1 mice, survival T/C', '104 % of control'),
  ('O=CN1CCCC1Cc1ccccc1 (stereo unspecified)', 'P388 leukemia ip, CD2F1 mice, survival T/C', '96 % of control'),
  ('COc1ccc(Nc2ncnc3ccccc23)cc1CN(CCCl)CCCl', 'P388 leukemia ip, CD2F1 mice, survival T/C', '100 % of control');

Then this compound:
# lookup: T/C of `O=C(CCl)c1ccc2c(c1)N(C(=O)COc1ccccc1)c1ccccc1S2`
91 % of control

====

System: P388 leukemia ip, CD2F1 mice, survival T/C
Protocol Text: NCI In Vivo Anticancer Drug Screen. Data for tumor model P388 Leukemia (intraperitoneal) in CD2F1 (CDF1) mice
Study Conditions: endpoint: median survival time; dose: 25.0 mg/kg/injection; schedule: Q01DX005 (ip); vehicle: saline; higher = longer survival
Toxic doses and inconclusive results are not listed.
Quantity: T/C

Below, each entry is followed by its recorded T/C result.
INSERT INTO measurements (compound, test_system, obs_value) VALUES
  ('CN=C(NCCSCc1ccc2ccccc2n1)NCc1ccccc1', 'P388 leukemia ip, CD2F1 mice, survival T/C', '109 % of control'),
  ('O=C1CCOc2cccc(c2)OCCC(=O)OCCCOC(=O)CCOc2cccc(c2)OCCC(=O)OCCCO1', 'P388 leukemia ip, CD2F1 mice, survival T/C', '107 % of control'),
  ('CN1CCCN2CCCN(C)P12', 'P388 leukemia ip, CD2F1 mice, survival T/C', '105 % of control'),
  ('O=C(Nc1cccnc1)c1ccc([N+](=O)[O-])s1', 'P388 leukemia ip, CD2F1 mice, survival T/C', '90 % of control'),
  ('Oc1cc(O)c(-c2c(O)cc(O)cc2O)c(O)c1 (tested in a mixture with another compound)', 'P388 leukemia ip, CD2F1 mice, survival T/C', '96 % of control');

Then this compound:
Any idea what T/C came out for `CC1=CC(=Nc2cc(Br)c(O)c(Br)c2)C=CC1=O` on P388 leukemia ip, CD2F1 mice, survival T/C?
105 % of control

====

Tested on: P388 leukemia ip, CD2F1 mice, survival T/C
Protocol Text: NCI In Vivo Anticancer Drug Screen. Data for tumor model P388 Leukemia (intraperitoneal) in CD2F1 (CDF1) mice
Study Conditions: endpoint: median survival time; dose: 200.0 mg/kg/injection; schedule: Q01DX005 (ip); vehicle: saline with Tween-80; higher = longer survival
Inconclusive results and toxic doses are left out.
Overview of reported T/C across a group of compounds:

Below, each entry is followed by its recorded T/C result.
INSERT INTO measurements (compound, obs_value) VALUES
  ('COc1cc(C(NC(=O)N2C(=O)C=CC2=O)NC(=O)N2C(=O)C=CC2=O)ccc1O', '100 % of control'),
  ('CC(NNC(=S)N1CC2CCC(CC2)C1)c1cccc[n+]1[O-] (stereo unspecified)', '100 % of control'),
  ('CCOC(=O)c1sc(SC)c2c(N)nc(C)nc12', '95 % of control'),
  ('c1cc2c(c(-c3nccc4c3CCCC4)n1)CCCC2', '93 % of control'),
  ('NC(Cc1ccc(O)cc1)C(=O)N/N=C/c1cccc2ccccc12 (stereo unspecified)', '89 % of control');

# lookup: T/C of CCOc1ccc(NC(=S)NC2OC(COC(C)=O)C(OC(C)=O)C(OC(C)=O)C2OC(C)=O)cc1 (stereo unspecified)
92 % of control

# lookup: T/C of `Cn1cnc2c(=O)[nH]c(N)nc21`
107 % of control

# lookup: T/C of `C[C@]12CC[C@H](O)C[C@@H]1CC[C@@H]1[C@@H]2CC[C@]2(C)c3nc4ccccc4c(C(=O)O)c3C[C@@H]12`
93 % of control
